# STUDY_SYSTEM: HLA-A*69:01
# PROCEDURE_DETAILS: IEDB peptide-MHC binding, purified MHC/direct/fluorescence; filed as Kd, often an IC50 or EC50 that approximates it; bounds were set here for any values at or beyond the usual limits of such assays
# CONDITIONS: source organism: Cowpox virus
MEASURE_NAME: Kd

(Q) Find the recorded Kd belonging to ILQDRIRMY and report it.
(A) ≥ 20 µM

###

# STUDY_SYSTEM: HLA-A*29:02
# PROCEDURE_DETAILS: IEDB peptide-MHC binding, purified MHC/direct/fluorescence; filed as Kd, often an IC50 or EC50 that approximates it; bounds were set here for any values at or beyond the usual limits of such assays
# CONDITIONS: source organism: Maporal virus
pKd: −log10 of the molar value.
MEASURE_NAME: pKd

(Q) Entry under review: DWMDRIEEF . Reported pKd?
(A) ≤ 4.70

###

# STUDY_SYSTEM: HLA-B*07:02
# PROCEDURE_DETAILS: IEDB peptide-MHC binding, purified MHC/direct/fluorescence; filed as Kd, often an IC50 or EC50 that approximates it; bounds were set here for any values at or beyond the usual limits of such assays
# CONDITIONS: source organism: Influenza A virus (A/Viet Nam/HN/2004(H5N1))
MEASURE_NAME: Kd

(Q) Would you mind telling me what Kd value was observed for RNEQGQTLW ?
(A) ≥ 20 µM

###

# STUDY_SYSTEM: HLA-A*31:01
# PROCEDURE_DETAILS: IEDB peptide-MHC binding, purified MHC/direct/fluorescence; filed as Kd, often an IC50 or EC50 that approximates it; bounds were set here for any values at or beyond the usual limits of such assays
# CONDITIONS: source organism: dengue virus type 3
pKd: −log10 of the molar value.
MEASURE_NAME: pKd

(Q) What value of pKd has been reported for the following sequence? TSEHGGRAY
(A) ≤ 4.70

###

# STUDY_SYSTEM: HLA-B*51:01
# PROCEDURE_DETAILS: IEDB peptide-MHC binding, purified MHC/competitive/radioactivity; filed as Kd, often an IC50 or EC50 that approximates it; bounds were set here for any values at or beyond the usual limits of such assays
# CONDITIONS: source organism: Dengue virus 3 Martinique/1243/1999
MEASURE_NAME: pKd
Scale: pKd equals -log10([C]), with [C] in mol/L.

(Q) Reported pKd, sequence LAGVSLLPV : ____
(A) 5.72

###

# STUDY_SYSTEM: HLA-B*58:01
# PROCEDURE_DETAILS: IEDB peptide-MHC binding, purified MHC/direct/fluorescence; filed as Kd, often an IC50 or EC50 that approximates it; bounds were set here for any values at or beyond the usual limits of such assays
# CONDITIONS: source organism: SARS-CoV1
Below, each entry is listed alongside its reported pKd.
Note on pKd: it is the negative log10 of concentration, concentration in mol/L.

(Q) Quick one: pKd of VLWAHGFEL ?
(A) 5.73

Further cases:
(Q) Using the record for YIFFASFYY , report its pKd.
(A) 5.51

###

# STUDY_SYSTEM: HLA-A*68:02
# PROCEDURE_DETAILS: IEDB peptide-MHC binding, purified MHC/direct/fluorescence; filed as Kd, often an IC50 or EC50 that approximates it; bounds were set here for any values at or beyond the usual limits of such assays
# CONDITIONS: source organism: Brucella suis 1330
pKd: −log10 of the molar value.
MEASURE_NAME: pKd

(Q) // map MHCDFAFWV to recorded pKd (system: HLA-A*68:02)
(A) ≤ 4.70

###

# STUDY_SYSTEM: HLA-A*23:01
# PROCEDURE_DETAILS: IEDB peptide-MHC binding, purified MHC/competitive/radioactivity; filed as Kd, often an IC50 or EC50 that approximates it; bounds were set here for any values at or beyond the usual limits of such assays
# CONDITIONS: source organism: Dengue virus 3 Sri Lanka/1266/2000
MEASURE_NAME: pKd
Keep it numeric: pKd is minus log10 of the concentration in mol/L.

(Q) GET /values?readout=pKd&item= TYQLWTALV
(A) 7.23

###

# STUDY_SYSTEM: HLA-A*02:19
# PROCEDURE_DETAILS: IEDB peptide-MHC binding, purified MHC/competitive/fluorescence; filed as Kd, often an IC50 or EC50 that approximates it; bounds were set here for any values at or beyond the usual limits of such assays
# CONDITIONS: source organism: Entamoeba histolytica HM-1:IMSS
pKd: −log10 of the molar value.
MEASURE_NAME: pKd

(Q) So what does the record say about pKd for NPAACSYMV ?
(A) ≤ 4.70

###

# STUDY_SYSTEM: HLA-B*39:01
# PROCEDURE_DETAILS: IEDB peptide-MHC binding, purified MHC/competitive/fluorescence; filed as Kd, often an IC50 or EC50 that approximates it; bounds were set here for any values at or beyond the usual limits of such assays
# CONDITIONS: source organism: Escherichia coli
MEASURE_NAME: pKd
Worth noting: pKd values are minus log10 of concentrations stated in mol/L.

(Q) Reported pKd, sequence HLAGYSGVL : ____
(A) 8.60

###

# STUDY_SYSTEM: HLA-A*33:01
# PROCEDURE_DETAILS: IEDB peptide-MHC binding, purified MHC/competitive/radioactivity; filed as Kd, often an IC50 or EC50 that approximates it; bounds were set here for any values at or beyond the usual limits of such assays
# CONDITIONS: source organism: Dengue virus 3 Martinique/1243/1999
MEASURE_NAME: Kd

(Q) Short answer please: Kd, HLA-A*33:01, entry MWSLMYFHRR
(A) 31.2 nM

Next:
(Q) State its Kd on HLA-A*33:01: TTVITPMLR
(A) 36.7 nM

(Q) Given the entry EMGANFKADR , what Kd was observed with HLA-A*33:01?
(A) 1540 nM

(Q) What value of Kd on HLA-A*33:01 does MWSLMYFHR have?
(A) 1.36 nM

###

# STUDY_SYSTEM: HLA-B*15:01
# PROCEDURE_DETAILS: IEDB peptide-MHC binding, purified MHC/competitive/fluorescence; bounds were set here for any values at or beyond the usual limits of such assays
# CONDITIONS: source organism: Variola virus
pIC50: −log10 of the molar value.
MEASURE_NAME: pIC50

(Q) Query (sequence): LIIDEVHEH ; field requested: pIC50
(A) ≤ 3.89

###

# STUDY_SYSTEM: HLA-A*31:01
# PROCEDURE_DETAILS: IEDB peptide-MHC binding, purified MHC/direct/fluorescence; filed as Kd, often an IC50 or EC50 that approximates it; bounds were set here for any values at or beyond the usual limits of such assays
# CONDITIONS: source organism: Camelpox virus CMS
MEASURE_NAME: Kd

(Q) Consider the sequence shown here: WQFAIHYSF What is its recorded Kd?
(A) ≥ 20 µM

###

# STUDY_SYSTEM: HLA-A*31:01
# PROCEDURE_DETAILS: IEDB peptide-MHC binding, purified MHC/competitive/radioactivity; filed as Kd, often an IC50 or EC50 that approximates it; bounds were set here for any values at or beyond the usual limits of such assays
# CONDITIONS: source organism: Vaccinia virus WR
MEASURE_NAME: Kd (nM)
All answers are understood in nM, so give the number only.

Example entries begin here.
(Q) Notebook entry, HLA-A*31:01 assay: Kd of TSSFREKSR = ?
(A) 132

(Q) Item ASKKDKLTVY with HLA-A*31:01 - Kd?
(A) 5290

(Q) Enter reported Kd observed with HLA-A*31:01 for SLENLDPDNK
(A) 17000

(Q) Enter reported Kd observed with HLA-A*31:01 for KIKTNDINVR
(A) 103

(Q) Test system HLA-A*31:01; read-out Kd; what value for FVSLVKKNKK ?
(A) 284

(Q) Can you look up Kd on HLA-A*31:01 for LFDFVNFVK ?
(A) 798

(Q) Observed Kd on HLA-A*31:01 for VINAPIKEFK , please.
(A) 227

(Q) Value wanted: Kd (HLA-A*31:01) of entry MLYQLLEAVY
(A) 10800

---
(Q) Lookup: Kd / HLA-A*31:01 / DTIESAKTK
(A) 11300

(Q) Hi! What's the reported Kd for FLLRHYYNK on HLA-A*31:01?
(A) 76.4

(Q) Form: Entry = YANCSSISIK | System = HLA-A*31:01 | Kd = ____
(A) 4310

(Q) So what Kd did IAEFVKENER get with HLA-A*31:01?
(A) 1690

(Q) Any idea what Kd came out for IVRTMPNESR on HLA-A*31:01?
(A) 4820

(Q) Find Kd (HLA-A*31:01) for the entry SLNSMYTRLR
(A) 0.291

(Q) Lab request: please report Kd under test system HLA-A*31:01 for KSIHLTKTDK
(A) 313

(Q) Record lookup: for HLA-A*31:01, what Kd belongs to TSVDIETAIR ?
(A) 922

(Q) Give the reported Kd for SVLCVKKFY (system: HLA-A*31:01).
(A) 7980

(Q) Param readout = Kd; param system = HLA-A*31:01; param query = YSKLTKDRK ; response: value
(A) 4320

Cited source for all entries: the Immune Epitope Database (IEDB)
